test system: SK-MEL-2; experiment: Cytotoxicity against human SK-MEL-2 cells at 10 uM after 48 hrs by SRB assay; type: functional; details: SK-MEL-2, 48 h, read-out: GI
Each entry below carries its recorded inhibition of growth at 10 µM.
// return numeric value only (unit: %, not printed)

Worked cases, answers included:
smiles_data=Cc1nc2cc(Nc3nc(Nc4ccc(F)cc4)nc(-c4ccccc4)n3)ccc2n1Cc1ccccc1 recorded_measurement=25.4
smiles_data=Cc1nc2cc(Nc3nc(Nc4ccc(F)cc4)nc(-c4cccs4)n3)ccc2n1Cc1ccccc1 recorded_measurement=27.1

Field inhibition of growth at 10 µM (SK-MEL-2), entry Cc1nc2cc(Nc3nc(NCCN)nc(Nc4ccc(F)cc4)n3)ccc2n1Cc1ccccc1 : 9.54

Field inhibition of growth at 10 µM (SK-MEL-2), entry Cc1nc2ccc(Nc3nc(NCCN)nc(Nc4ccc(F)cc4)n3)cc2n1Cc1ccccc1 : 19.9
